assay_comment: MITF transcriptional activity suppression – cell-based, SK-MEL-5, single point, luciferase, primary screen (AID 488899)
run_conditions: SK-MEL-5 TRPM1 promoter luciferase, 24 h; at 12.5 µM; stronger effect = higher value
Hit rate of the full screen: of about 330,000 compounds, about 2,800 (0.85%) were called active. The full list was thinned out, with actives kept by preference.
experimental_readout: inhibition (%)
Reply numerically in %, unit not repeated.

Known results for compounds:
[[record]]
compound = "COc1cccc2sc(N(CCCN(C)C)C(=O)C(c3ccccc3)c3ccccc3)nc12"
unit_annotation = "%"
readout_value = 71.9

[[record]]
compound = "COC(=O)Cc1nc2c(N)nc(N)nc2[nH]c1=O"
unit_annotation = "%"
readout_value = 3.9

[[record]]
compound = "O=C(Oc1ccc(-c2nc(-c3ccccn3)no2)cc1)c1ccccc1"
unit_annotation = "%"
readout_value = 36.6

[[record]]
compound = "COc1cccc2sc(N(CCCN(C)C)C(=O)CCS(=O)(=O)c3ccccc3)nc12"
unit_annotation = "%"
readout_value = 31.1

[[record]]
compound = "O=C(C[C@H]1C/C=C\\C[C@@H](NC(=O)OCC2c3ccccc3-c3ccccc32)C(=O)O[C@@H](c2ccccc2)CNC1=O)N[C@H](CO)Cc1ccccc1"
unit_annotation = "%"
readout_value = 86.8

[[record]]
compound = "O=C(Cn1ccc2cc(S(=O)(=O)N3CCCC3)ccc21)NCc1ccccc1"
unit_annotation = "%"
readout_value = -7.14

[[record]]
compound = "CCN(C(=O)COC(=O)Cc1c(F)cccc1Cl)c1c(N)n(Cc2ccccc2)c(=O)[nH]c1=O"
unit_annotation = "%"
readout_value = -2.14

[[record]]
compound = "N/C(=N\\S(=O)(=O)c1ccc(Cl)cc1)N1CCOCC1"
unit_annotation = "%"
readout_value = 1.47

[[record]]
compound = "Cc1ccc(-c2nnc(-c3ccc(NC(=O)c4cccs4)cc3)o2)cc1"
unit_annotation = "%"
readout_value = 73.5

[[record]]
compound = "COc1ccc(C(=O)NC2CC(C)(C)NC(C)(C)C2)cc1OC"
unit_annotation = "%"
readout_value = 1.95


# input Please report inhibition for the following compound: CCOc1ccc(CNC(=O)C2CCCN(c3nnc(C)c4c(C)n(-c5ccccc5)nc34)C2)cc1 (stereo unspecified)
# output 48.5

# input Please report inhibition for the following compound: `O=C(/C=C/c1ccc([N+](=O)[O-])o1)NNC(=O)c1ccc(F)cc1`
# output 80.8

# input Please report inhibition for the following compound: `Cc1ccc(OCC(=O)Nc2ccc3oc(=O)ccc3c2)cc1C`
# output -15.4

# input Please report inhibition for the following compound: `O=C(O)CN1c2cccc3cccc(c23)S1(=O)=O`
# output 13.3

# input Please report inhibition for the following compound: `O=C(O)CCCn1c(=O)c2cccn2c2ccc(F)cc21`
# output 7.45

# input Please report inhibition for the following compound: `Cc1ccc(OCC(=O)Nc2ccc(NC(=O)c3cccs3)cc2)c(C)c1`
# output 27.8

# input Please report inhibition for the following compound: `O=C(NCCc1ccc(C(F)(F)F)cc1)c1ccc2c(c1)OCO2`
# output -3.11

# input Please report inhibition for the following compound: CC(C)CN1CC(C)C(=O)N(c2ccccc2)C1=S (stereo unspecified)
# output -5.49

# input Please report inhibition for the following compound: `Cc1ccc(C(=O)Nc2ccc(NC(=O)c3cccs3)cc2)c(C)c1`
# output -4.59

# input Please report inhibition for the following compound: CCC1([N+](=O)[O-])COC(c2ccc(C(C)C)cc2)OC1 (stereo unspecified)
# output -55.6

# input Please report inhibition for the following compound: `COc1cc(CCC(=O)N2CCN(c3ccccc3Cl)CC2)cc(OC)c1OC`
# output 7.49

* * *

assay_comment: MITF transcriptional activity suppression – cell-based, SK-MEL-5, single point, luciferase, primary screen (AID 488899)
run_conditions: SK-MEL-5 TRPM1 promoter luciferase, 24 h; at 12.5 µM; stronger effect = higher value
Screen size: about 330,000 compounds; about 2,800 (0.85%) were called active. Many of the other results were omitted from the sample, so actives are more common in it than they were.
Class class 1: inhibition at least 40%. Class class 0: inhibition below 40%.

Answered examples (2):
[[record]]
compound_structure = "C=CC1=C(C(=O)O)N2C(=O)[C@@H](NC(=O)/C(=N\\OCC(=O)O)c3csc(N)n3)[C@H]2SC1"
qualitative_label = "class 0"

[[record]]
compound_structure = "C[C@H]1CN([C@@H](C)CO)C(=O)Cc2cc(NC(=O)Cc3ccccc3)ccc2O[C@H]1CN(C)S(=O)(=O)c1cccs1"
qualitative_label = "class 0"


# input Threshold query (inhibition >= 40%) on `CCC(=C/c1sc2ccc3ccccc3c2[n+]1C)/C=C1\Sc2ccc3ccccc3c2N1C`
# output class 1

# input Threshold query (inhibition >= 40%) on `O=C(NN=Cc1ccccc1)c1ccccc1`
# output class 0

* * *

assay_comment: MITF transcriptional activity suppression – cell-based, SK-MEL-5, single point, luciferase, primary screen (AID 488899)
run_conditions: SK-MEL-5 TRPM1 promoter luciferase, 24 h; at 12.5 µM; stronger effect = higher value
In all, about 330,000 compounds went through this assay and about 2,800 (0.85%) were called active. Many of the other results were omitted from the sample, so actives are more common in it than they were.
experimental_readout: inhibition (%)
Reply numerically in %, unit not repeated.

Known results for compounds:
[[record]]
compound = "Cc1cccc(CS(=O)(=O)c2ncc(Cl)c(C(=O)Nc3ccc(F)cc3)n2)c1"
readout_value = 41

[[record]]
compound = "COC(=O)C(C)Oc1ccc2c(c1)O/C(=C\\c1cccc(Br)c1)C2=O (stereo not given)"
readout_value = -3.21

[[record]]
compound = "Cc1cccc(NC(=O)c2nc[nH]c2C(=O)NCC(=O)OCc2ccccc2)c1"
readout_value = -4.1

[[record]]
compound = "COc1ccc(OCCNS(=O)(=O)Cc2ccccc2)cc1"
readout_value = 0.0862


# input Please report inhibition for the following compound: `Cc1cccc(NC(=O)c2nc(S(=O)(=O)Cc3ccccc3)ncc2Cl)c1`
# output 70.8

# input Please report inhibition for the following compound: `CC[C@]12c3[nH]c4ccc(Cl)cc4c3CCN1C(=O)[C@@H](CC(=O)NCCCOC)C[C@@H]2C(=O)N1CCN(C(=O)c2ccco2)CC1`
# output -7.5

# input Please report inhibition for the following compound: `COc1cc(/C=C2\Oc3ccc(C#Cc4ccc(O)cc4)cc3C2=O)cc(OC)c1`
# output 73.1

# input Please report inhibition for the following compound: `COc1ccc2[nH]c3c(C)c4cc[n+](C)cc4c(C)c3c2c1`
# output 50.4

# input Please report inhibition for the following compound: `CCN(CC)S(=O)(=O)c1ccc(Cl)c(NC(=O)c2ccncc2)c1`
# output 0.4

# input Please report inhibition for the following compound: `Cc1ccc(S(=O)(=O)CC(=O)Nc2nnc(C)s2)cc1`
# output 7.41

* * *

assay_comment: MITF transcriptional activity suppression – cell-based, SK-MEL-5, single point, luciferase, primary screen (AID 488899)
run_conditions: SK-MEL-5 TRPM1 promoter luciferase, 24 h; at 12.5 µM
In all, about 330,000 compounds went through this assay and about 2,800 (0.85%) were called active.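 Rule for the calls: active = mean inhibition across replicates of 60% or more, whatever share of single replicates reaches that level; inconclusive = some that reach 60%, reason not given; inactive = mean inhibition across replicates below 60%.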 This is one part of a sample in which actives are shown more often than they occur.
Respond with a class label; see active, inactive

Answered examples (10):
[[record]]
molecule = "CCOC(=O)CCC(NC(=O)c1ccc(CNc2nc3cc(C(F)(F)F)ccc3nc2C(=O)OCC)cc1)C(=O)OCC (centres undefined)"
qualitative_label = "inactive"

[[record]]
molecule = "CCOC(=O)c1c(C)nc(-c2ccccc2)nc1NC(=O)C(C)C"
qualitative_label = "inactive"

[[record]]
molecule = "COc1ccc(C(=O)Nc2ccnn2C2CCN(Cc3ccncc3)CC2)cc1"
qualitative_label = "inactive"

[[record]]
molecule = "Cc1ccc(-c2cn3cc([N+](=O)[O-])ccc3n2)cc1"
qualitative_label = "inactive"

[[record]]
molecule = "Cc1ccc(CN2CC(C(=O)N3CCN(S(=O)(=O)c4ccccc4)CC3)CC2=O)cc1 (centres undefined)"
qualitative_label = "inactive"

[[record]]
molecule = "COc1ccc(OC)c(Cc2cnc3nc(N)nc(N)c3c2C)c1"
qualitative_label = "inactive"

[[record]]
molecule = "CNC[C@H](CC1CCCCC1)NC[C@H](NCCC1CCCC1)[C@H](C)O"
qualitative_label = "active"

[[record]]
molecule = "CCN1C(=O)N[C@@H](c2ccccc2)[C@H](C(C)=O)[C@H]1C"
qualitative_label = "inactive"

[[record]]
molecule = "O=S1(=O)CCC(NC(=S)SCc2ccccc2Br)C1 (centres undefined)"
qualitative_label = "active"

[[record]]
molecule = "Cc1ccc2nc(-c3ccc(Br)cc3)cn2c1"
qualitative_label = "inactive"


Moving on to the next molecule.
# input // param item: `CCOC(=O)CN/C=C(\C#N)c1ccc(F)cc1` ; yields the recorded call
# output inactive
